Molecular target: human ether-à-go-go-related gene (hERG) potassium channel (human)
Experiment: primary screen, population patch clamp on CHO cells stably expressing hERG; higher = less effect of the substance
In all, about 310,000 compounds went through this assay and about 14,000 (4.5%) showed an effect of 50% or more. The effect is printed as a negative number. The full list was thinned out, with strong results kept by preference.
Listing: hERG current change (%, negative = inhibition) at 10uM of selected compounds
Your answer is read as %, so omit the unit and give the number.

Record excerpt, results attached:
O=C(CN(Cc1ccc(F)cc1)C(=O)c1ccco1)NCc1ccc(F)cc1 ... -40.9
Cc1ccc(C(=O)Nc2cc3c(oc2=O)CCCC3=O)cc1 ... -2.47
COc1ccc(CNC(=O)COC(=O)/C=C/c2cccc(Br)c2)cc1OC ... 30.1

# input Returns the measured hERG current change (%, negative = inhibition) at 10uM for the input compound. Input: CCCCN(CC(=O)NCc1ccc(F)cc1)C(=O)c1ccco1
# output 8.72

# input Returns the measured hERG current change (%, negative = inhibition) at 10uM for the input compound. Input: COc1ccc(CN(CCC(c2ccccc2)C2CCOC(C)(C)C2)C(C)=O)cc1 (stereo not drawn)
# output -11.6

# input Returns the measured hERG current change (%, negative = inhibition) at 10uM for the input compound. Input: O=C(CN(Cc1ccccc1F)C(=O)c1ccco1)NCc1ccc(F)cc1
# output -50.7

# input Returns the measured hERG current change (%, negative = inhibition) at 10uM for the input compound. Input: CCCCN1C(=O)C(=O)N(CC(=O)Nc2sc(CC)cc2C(=O)OCC)C1=O
# output -10

# input Returns the measured hERG current change (%, negative = inhibition) at 10uM for the input compound. Input: CC1(C)CC(C(CCN(Cc2ccccc2)C(=O)c2ccco2)c2ccc(F)cc2)CCO1 (stereo not drawn)
# output -10.4

# input Returns the measured hERG current change (%, negative = inhibition) at 10uM for the input compound. Input: Cc1ccc(OCC(=O)Nc2ccc(C)c(S(=O)(=O)N3CCCCC3)c2)c([N+](=O)[O-])n1
# output -45.4

----------
Biological target: human ether-à-go-go-related gene (hERG) potassium channel (human);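 further: peak tail current of the secondary pulse compared with the same well before compound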
Test: primary screen, population patch clamp on CHO cells stably expressing hERG; higher = less effect of the substance
The whole screen tested about 310,000 compounds, of which about 14,000 (4.5%) showed an effect of 50% or more. Effects have a minus sign here. Shown is part of a subset that was picked to be rich in strong results.
Listing: hERG current change (%, negative = inhibition) at 10uM of selected compounds
Your answer is read as %, so omit the unit and give the number.

CCOc1ccc(NC(=O)c2sc3nc(C)nc(N4CCOCC4)c3c2C)cc1 ... -50.7
O=C(Nc1ccccc1C(=O)Nc1ccc2c(c1)OCO2)c1cccs1 ... 3.6
Cn1c(=O)c2c(nc(CN3CCc4ccccc4C3)n2Cc2ccc(Cl)cc2)n(C)c1=O ... 0.125
Cn1c(=O)c2c(nc(CN3CCN(Cc4ccccc4)CC3)n2CCN2CCOCC2)n(C)c1=O ... -17.6

Please find the next compound below.
# input Returns the measured hERG current change (%, negative = inhibition) at 10uM for the input compound. Input: Cn1c(=O)c2c(nc(CN3CCN(Cc4ccccc4)CC3)n2Cc2ccc(Cl)cc2)n(C)c1=O
# output -68

----------
Listing: hERG current change (%, negative = inhibition) at 10uM of selected molecules
Target: human ether-à-go-go-related gene (hERG) potassium channel (human, UniProt Q12809);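 further: peak tail current of the secondary pulse compared with the same well before compound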
Sequence (Q12809 whole entry, looked up): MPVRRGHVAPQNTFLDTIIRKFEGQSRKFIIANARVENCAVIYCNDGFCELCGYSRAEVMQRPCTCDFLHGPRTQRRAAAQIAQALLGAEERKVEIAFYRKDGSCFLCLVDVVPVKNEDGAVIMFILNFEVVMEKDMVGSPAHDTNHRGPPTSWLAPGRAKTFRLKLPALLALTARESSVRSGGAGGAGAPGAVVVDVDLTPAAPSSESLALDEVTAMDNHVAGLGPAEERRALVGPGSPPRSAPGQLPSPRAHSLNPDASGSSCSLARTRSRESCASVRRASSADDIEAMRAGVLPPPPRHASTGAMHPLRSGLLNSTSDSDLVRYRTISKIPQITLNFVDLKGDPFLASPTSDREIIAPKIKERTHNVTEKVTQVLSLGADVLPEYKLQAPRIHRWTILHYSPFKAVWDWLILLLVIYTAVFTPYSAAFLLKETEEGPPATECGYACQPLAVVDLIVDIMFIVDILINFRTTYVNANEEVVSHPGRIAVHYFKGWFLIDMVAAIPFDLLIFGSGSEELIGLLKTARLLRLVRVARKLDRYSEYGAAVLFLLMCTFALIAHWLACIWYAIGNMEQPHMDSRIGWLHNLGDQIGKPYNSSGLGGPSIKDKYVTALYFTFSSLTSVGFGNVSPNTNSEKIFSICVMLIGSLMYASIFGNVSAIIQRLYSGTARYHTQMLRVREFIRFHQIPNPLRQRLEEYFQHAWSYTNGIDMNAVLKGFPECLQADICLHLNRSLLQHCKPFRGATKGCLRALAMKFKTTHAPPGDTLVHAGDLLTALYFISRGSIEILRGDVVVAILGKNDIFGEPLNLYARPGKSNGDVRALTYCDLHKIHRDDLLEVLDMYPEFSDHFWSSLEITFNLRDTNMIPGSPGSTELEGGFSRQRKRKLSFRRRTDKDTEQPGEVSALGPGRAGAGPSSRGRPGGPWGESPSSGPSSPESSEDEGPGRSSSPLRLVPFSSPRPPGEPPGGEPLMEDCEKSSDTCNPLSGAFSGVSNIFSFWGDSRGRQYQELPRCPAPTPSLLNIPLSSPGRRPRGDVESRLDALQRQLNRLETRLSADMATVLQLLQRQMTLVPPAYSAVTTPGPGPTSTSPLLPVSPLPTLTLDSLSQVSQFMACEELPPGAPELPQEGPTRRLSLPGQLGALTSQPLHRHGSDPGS
Assay: primary screen, population patch clamp on CHO cells stably expressing hERG; higher = less effect of the substance
Out of some 310,000 compounds screened, about 14,000 (4.5%) showed an effect of 50% or more. The effect is printed as a negative number. Shown is part of a subset that was picked to be rich in strong results.
Your answer is read as %, so omit the unit and give the number.

Record excerpt, results attached:
COC(=O)C1=C(C(=O)OC)[C@@H]2N(C)c3ccccc3[C@@]23C[C@@H](C(=O)OC)N(C(=O)c2cccs2)C3=N1 ... -10.1
CCN(Cc1ccncc1)Cc1cn[nH]c1-c1ccc(OC)cc1F ... -3.13
CCOC(=O)N1C2=NC(C(=O)OC)=C(C(=O)OC)[C@@H]3N(C)c4ccc(OC)cc4[C@]23C[C@H]1C(=O)OC ... 6.52
COC(=O)C1=C(C(=O)OC)[C@@H]2N(C)c3ccc(OC)cc3[C@@]23C[C@@H](C(=O)OC)N(C(=O)C2CCC2)C3=N1 ... -50
COC(=O)C1=C(C(=O)OC)[C@@H]2N(C)c3ccccc3[C@@]23C[C@@H](C(=O)OC)N(C(=O)COCc2ccccc2)C3=N1 ... -9.16

# input Returns the measured hERG current change (%, negative = inhibition) at 10uM for the input molecule. Input: COC(=O)c1cc(C(=O)c2ccc(Cl)cc2Cl)cn1C
# output -16.4

# input Returns the measured hERG current change (%, negative = inhibition) at 10uM for the input molecule. Input: COC(=O)C1=C(C(=O)OC)[C@@H]2N(C)c3ccc(OC)cc3[C@@]23C[C@@H](C(=O)OC)N(C(=O)c2cccs2)C3=N1
# output -68.3

----------
Biological target: human ether-à-go-go-related gene (hERG) potassium channel (human, UniProt Q12809);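 further: peak tail current of the secondary pulse compared with the same well before compound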
Assay: primary screen, population patch clamp on CHO cells stably expressing hERG; higher = less effect of the substance
Procedure: Briefly, Chinese hamster ovary (CHO) cells stably expressing the hERG channel were dislodged from tissue culture flasks and dispensed into PPC plates. […] During the recording, background leak currents were estimated by a 100 ms step to -80 mV from an initial holding potential of -70 mV and subtracted from the subsequent current measurement. The campaign was conducted in two phases using slight differences in recording protocol. […]
Hit rate of the full screen: of about 310,000 compounds, about 14,000 (4.5%) showed an effect of 50% or more. The effect is printed as a negative number. The full list was thinned out, with strong results kept by preference.
Listing: hERG current change (%, negative = inhibition) at 10uM of selected compounds
Your answer is read as %, so omit the unit and give the number.

Record excerpt, results attached:
CCc1ccc(NC(=O)c2cccc(NC3=NC4CS(=O)(=O)CC4S3)c2)cc1 (centres unmarked) ... 18
Cc1cccc(C(=O)NCC(c2ccc(F)cc2)N2CCOCC2)c1 (centres unmarked) ... -2.49
COc1ccc2nc(/C=N/NC(=O)[C@H](CCSC)NC(=O)OC(C)(C)C)ccc2c1 ... -59.7
CCCNc1c(NS(=O)(=O)c2ccc(C3CCCCC3)cc2)c(=O)oc2ccccc12 ... 21.9

# input Returns the measured hERG current change (%, negative = inhibition) at 10uM for the input compound. Input: CC(=O)c1ccc(NC(=S)N2CCN(C(=S)Nc3ccc(C(C)=O)cc3)C(C)C2)cc1 (centres unmarked)
# output 20.6

# input Returns the measured hERG current change (%, negative = inhibition) at 10uM for the input compound. Input: O=C(CCN1C(=O)/C(=C/c2ccccc2Cl)SC1=S)NNC(=O)c1ccccc1O
# output -6.37

# input Returns the measured hERG current change (%, negative = inhibition) at 10uM for the input compound. Input: O=C(O)CC(CC(=O)Nc1ccc(C(=O)O)cc1)c1ccccc1 (centres unmarked)
# output 12.9

----------
Molecular target: human ether-à-go-go-related gene (hERG) potassium channel (human);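 further: peak tail current of the secondary pulse compared with the same well before compound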
Assay: primary screen, population patch clamp on CHO cells stably expressing hERG; higher = less effect of the substance
Among all 310,000 compounds or so, about 14,000 (4.5%) showed an effect of 50% or more. Effects have a minus sign here. For the sample, strong results were picked, then their nearest neighbours and some compounds at random.
Readout label: hERG current change (%, negative = inhibition) at 10uM (%)
Your answer is read as %, so omit the unit and give the number.

Record excerpt, results attached:
CCOC(=O)C1=C(N)OC2=C(C(=O)CCC2)C1c1cccs1 (stereo not shown) ... 1.13
COc1ccc(N2CCN(C(=O)c3ccccc3F)CC2)c([N+](=O)[O-])c1 ... -51.3
CCOC(=O)C1=C(N)OC2=C(C(=O)CCC2)C1c1ccc(C)s1 (stereo not shown) ... -54.3
COc1cc(OC)cc(C(=O)N2CCN(c3ccccc3F)CC2)c1 ... -11.6
O=C(c1ccccc1Br)N1CCN(c2ccc([N+](=O)[O-])c(N3CCOCC3)c2)CC1 ... -11.5
COc1ccc(N2CCN(C(=O)c3ccccc3Br)CC2)c([N+](=O)[O-])c1 ... -65.5
Cc1ccc(N2CCN(C(=O)c3ccccc3F)CC2)c(C)c1 ... -8.81
CCO.NCCc1c[nH]c2ccc(C(N)=O)cc12.O=C([O-])/C=C\C(=O)[O-] ... 11.6

# input Recorded hERG current change (%, negative = inhibition) at 10uM for COc1cc(C(=O)N2CCN(c3ccccc3OC)CC2)c([N+](=O)[O-])cc1OC with human ether-à-go-go-related gene (hERG) potassium channel (human), please?
# output 18.5

# input Recorded hERG current change (%, negative = inhibition) at 10uM for CCOC(=O)C1=C(N)OC2=C(C(=O)CC(C)(C)C2)C1c1ccc(C)s1 (stereo not shown) with human ether-à-go-go-related gene (hERG) potassium channel (human), please?
# output -42.3
